- assay-protocol: recombinant barcode read abundance after kanamycin selection (control-corrected) (log10(CPM+1)); higher = more efficient recombination; sequences stand for … in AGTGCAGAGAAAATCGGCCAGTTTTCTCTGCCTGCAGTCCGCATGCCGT…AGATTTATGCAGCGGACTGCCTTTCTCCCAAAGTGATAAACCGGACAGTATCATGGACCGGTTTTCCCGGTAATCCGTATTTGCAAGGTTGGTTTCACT; site = the 11-nt target;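 note: IS621 recombinase and bridge RNA in Escherichia coli cells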
endpoint-name: recombinant barcode read abundance (log10)

{"monomer-sequence": "GCTCGAACTTGGGTTCTAACCTGTTGCCT (site GCGCGAACTAG)", "obs-value": 0.00752}
{"monomer-sequence": "CTAGACCCTTGGGTTCTAACCTGTTGCCT (site GTAGACCCTAG)", "obs-value": 0.223}
{"monomer-sequence": "TAGTAGTCTTGGGTTCTAACCTGTTGCTT (site TAGTAGTCTAC)", "obs-value": 0.635}
{"monomer-sequence": "AATGGGACTTGGGTTCTAACCTGTTGCTG (site AATGGGACTCA)", "obs-value": 2.47}
{"monomer-sequence": "TACCGCCCTTGGGTTCTAACCTGTTGCGT (site GGAAAGACTGT)", "obs-value": 0.166}
{"monomer-sequence": "GAAATGGCTTGGGTTCTAACCTGTTGCCT (site GAAATGGCTAG)", "obs-value": 0.309}
{"monomer-sequence": "GAACTGCCTTGGGTTCTAACCTGTTGCTT (site GAACTGCCTAA)", "obs-value": 1.35}
{"monomer-sequence": "GGTCATGCTTGGGTTCTAACCTGTTGCCT (site GGTCATCCTAG)", "obs-value": 0.131}
{"monomer-sequence": "CTACGTTCTTGGGTTCTAACCTGTTGCCT (site CTACGTTCTAG)", "obs-value": 1.05}
{"monomer-sequence": "TGTCTAGCTTGGGTTCTAACCTGTTGCCT (site TGCCTAGCTAG)", "obs-value": 0.0303}
{"monomer-sequence": "ATAAGACCTTGGGTTCTAACCTGTTGCCT (site ATGAGAGCTAG)", "obs-value": 0.229}
{"monomer-sequence": "CCGATCCCTTGGGTTCTAACCTGTTGCCT (site CCGATCCCTAG)", "obs-value": 1.4}
{"monomer-sequence": "ACTGGTCCTTGGGTTCTAACCTGTTGCGG (site GACATATCTAA)", "obs-value": 0.0953}
{"monomer-sequence": "AGGACAACTTGGGTTCTAACCTGTTGCCT (site AGTACAACTAG)", "obs-value": 0.181}
{"monomer-sequence": "ACTAGAACTTGGGTTCTAACCTGTTGCAA (site ACTAGAACTTT)", "obs-value": 0.402}
{"monomer-sequence": "TATAATTCTTGGGTTCTAACCTGTTGCTT (site TATAATTCTAA)", "obs-value": 0.164}
{"monomer-sequence": "ATATCAACTTGGGTTCTAACCTGTTGCCG (site ATATCAACTCG)", "obs-value": 0.625}
{"monomer-sequence": "GTGATCCCTTGGGTTCTAACCTGTTGCAG (site GTGATCCCTCT)", "obs-value": 1.79}
{"monomer-sequence": "TGAACTACTTGGGTTCTAACCTGTTGCCT (site TGAACTACTAG)", "obs-value": 0.192}
{"monomer-sequence": "GTAGTGTCTTGGGTTCTAACCTGTTGCTA (site GTAGTGTCTTA)", "obs-value": 2.37}
{"monomer-sequence": "CCGCTAGCTTGGGTTCTAACCTGTTGCCT (site GCGCTAGCTAG)", "obs-value": 0.0389}
{"monomer-sequence": "AGTTGCACTTGGGTTCTAACCTGTTGCCT (site AGTTTCACTAG)", "obs-value": 0.0516}
{"monomer-sequence": "GAGAGGTCTTGGGTTCTAACCTGTTGCAT (site GAGAGGTCTAA)", "obs-value": 0.552}
{"monomer-sequence": "ACGCTATCTTGGGTTCTAACCTGTTGCTT (site CTAGCGACTCG)", "obs-value": 0.159}
{"monomer-sequence": "CTAAGCTCTTGGGTTCTAACCTGTTGCTC (site CTAAGCTCTAA)", "obs-value": 0.537}
{"monomer-sequence": "GGGACAGCTTGGGTTCTAACCTGTTGCCT (site GAGACAACTAG)", "obs-value": 0.15}
{"monomer-sequence": "GGGGCAACTTGGGTTCTAACCTGTTGCTA (site GGGGCAACTTA)", "obs-value": 0.388}
{"monomer-sequence": "TAGGCGGCTTGGGTTCTAACCTGTTGCGT (site AGCTGTCCTCT)", "obs-value": 0.0593}
{"monomer-sequence": "ATGAGGCCTTGGGTTCTAACCTGTTGCCT (site ATGAGGCCTAG)", "obs-value": 0.858}
{"monomer-sequence": "CTAGACCCTTGGGTTCTAACCTGTTGCCT (site ATAGACCCTAG)", "obs-value": 0.347}
{"monomer-sequence": "GTAATTACTTGGGTTCTAACCTGTTGCCT (site TACGCACCTTC)", "obs-value": 0.0355}
{"monomer-sequence": "CTACTAACTTGGGTTCTAACCTGTTGCAT (site CTACTAACTAC)", "obs-value": 0.149}
{"monomer-sequence": "ATTGGCTCTTGGGTTCTAACCTGTTGCCT (site ATTGGTTCTAG)", "obs-value": 0.0735}
{"monomer-sequence": "GGTGCTCCTTGGGTTCTAACCTGTTGCAT (site GGTGCTCCTAT)", "obs-value": 0.914}
{"monomer-sequence": "CACGAGCCTTGGGTTCTAACCTGTTGCCT (site CACGAGCCTAG)", "obs-value": 2.24}
{"monomer-sequence": "GAGTCTACTTGGGTTCTAACCTGTTGCCA (site CCTATAGCTAA)", "obs-value": 0.0951}
{"monomer-sequence": "AGTCAGTCTTGGGTTCTAACCTGTTGCGT (site AGTCAGTCTAC)", "obs-value": 2.33}
{"monomer-sequence": "GGTTCCTCTTGGGTTCTAACCTGTTGCGG (site TACCTAACTAA)", "obs-value": 0.118}
{"monomer-sequence": "TTGGATCCTTGGGTTCTAACCTGTTGCTT (site TTGGATCCTAG)", "obs-value": 1.85}
{"monomer-sequence": "GCTTTACCTTGGGTTCTAACCTGTTGCCT (site CCTTTACCTAG)", "obs-value": 0.019}
{"monomer-sequence": "CCTTTCACTTGGGTTCTAACCTGTTGCCT (site CCTTTCACTAG)", "obs-value": 0.228}
{"monomer-sequence": "GTGTATACTTGGGTTCTAACCTGTTGCCT (site GTTTATACTAG)", "obs-value": 0.075}
